From: patent US10294272B2

Exercise: state measured log10 IC50 for each of the sequences provided.
system: X4 tropic HIV-1 NL4-3; settings: blocking X4 tropic HIV-1 NL4-3 infection
No end group written: not given here.
Could you please treat all values as log10 of IC50 in nM?

Give recorded log10 IC50. LVRYTKKV [Derivative 408-415, LVRYTKKV]
4.41

Read off the recorded log10 IC50 for LVRYTKKVPQV [Derivative 408-418, LVRYTKKVPQV]
4.43

Tell us which log10 IC50 value is on record for IVRWTKKVPQVC [408I-419 WC01, IVRWTKKVPQVC]
3.22

Complete the entry with log10 IC50 for IVRWSKKVCQVS [408I-419 WSC03, IVRWSKKVCQVS]
3.18

State its log10 IC50 for this sequence: IVRWCKKVPQVS [408I-419 WC03, IVRWCKKVPQVS]
3.26

Look up and state reported log10 IC50 for IVRYSKKVPQC [408I-418 SC, IVRYSKKVPQC]
3.47

Give the measured log10 IC50 for LVRYTKKVPQVS [Derivative 408-419, LVRYTKKVPQVS]
3.74
